The reported numbers originate from the supplement of paper PMC8728848.

SYSTEM: Fuc(a1-3)[Gal(b1-4)]GlcNAc(b1-3)GalNAc
ASSAY EXPLANATION: glycan array binding signal (z-score within array); higher = stronger binding
MEASUREMENT CONDITIONS: glycan notation: IUPAC condensed, linker removed
About 410 targets per protein were measured; listed, in parts, are those with the strongest signals and a random draw of the rest.
REPORTED PROPERTY: glycan array binding signal (z-score)
Answers are plain numbers.

Request: Quick one: glycan array binding signal (z-score) of Epa1to9 (Candida glabrata) (protein) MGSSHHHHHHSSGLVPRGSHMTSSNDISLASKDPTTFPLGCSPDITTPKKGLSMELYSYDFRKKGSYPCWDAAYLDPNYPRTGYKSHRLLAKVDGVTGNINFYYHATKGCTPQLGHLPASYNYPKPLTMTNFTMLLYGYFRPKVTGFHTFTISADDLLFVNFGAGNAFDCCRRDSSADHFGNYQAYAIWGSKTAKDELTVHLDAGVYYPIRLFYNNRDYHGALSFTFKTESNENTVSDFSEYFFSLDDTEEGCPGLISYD ?
Response: -0.293
